For each record, write down the corresponding mean geometric MIC, Vancomycin Resistant Strains.
Tested on: vancomycin-resistant enterococci
METHOD: broth micro-dilution, mean geometric MIC
Assay type: cell-based, Enterococcus faecium and Enterococcus faecalis
TEST CONTEXT: enterococci, 24-hour incubation
Write the answer as a number in mg/L, unit excluded.

// lookup mean geometric MIC, Vancomycin Resistant Strains for CNC(CC(C)C)C(=O)NC1C(=O)NC(CC(N)=O)C(=O)NC2C(=O)NC3C(=O)NC(C(=O)NC(C(=O)O)c4cc(O)cc(O)c4-c4cc3ccc4O)C(OC3CC(C)(N)C(O)C(C)O3)c3ccc(c(Cl)c3)Oc3cc2cc(c3OC2OC(CO)C(O)C(O)C2OC2CC(C)(NCc3ccc(OCCCc4ccccc4)cc3)C(O)C(C)O2)Oc2ccc(cc2Cl)C1O (centres unmarked)
0.79

Next: CC#CCCCCCCCCCCNC1(C)CC(OC2C(Oc3c4cc5cc3Oc3ccc(cc3Cl)C(OC3CC(C)(N)C(O)C(C)O3)C3NC(=O)C(NC(=O)C5NC(=O)C(CC(N)=O)NC(=O)C(NC(=O)C(CC(C)C)NC)C(O)c5ccc(c(Cl)c5)O4)c4ccc(O)c(c4)-c4c(O)cc(O)cc4C(C(=O)O)NC3=O)OC(CO)C(O)C2O)OC(C)C1O (centres unmarked)
1.4

---

Test system: vancomycin-resistant enterococci
METHOD: broth micro-dilution, mean geometric MIC
Type: cell-based, Enterococcus faecium and Enterococcus faecalis
TEST CONTEXT: enterococci, 24-hour incubation
For each record, write down the corresponding mean geometric MIC, Vancomycin Resistant Strains.
Write the answer as a number in µg/mL, unit excluded.

// lookup mean geometric MIC, Vancomycin Resistant Strains for CNC(CC(C)C)C(=O)NC1C(=O)NC(CC(N)=O)C(=O)NC2C(=O)NC3C(=O)NC(C(=O)NC(C(=O)O)c4cc(O)cc(O)c4-c4cc3ccc4O)C(OC3CC(C)(N)C(O)C(C)O3)c3ccc(c(Cl)c3)Oc3cc2cc(c3OC2OC(CO)C(O)C(O)C2OC2CC(C)(NCc3ccc(NC(=O)c4cccc(F)c4)cc3)C(O)C(C)O2)Oc2ccc(cc2Cl)C1O (stereo not drawn) [Compound 194]
2.4

Next: CNC(CC(C)C)C(=O)NC1C(=O)NC(CC(N)=O)C(=O)NC2C(=O)NC3C(=O)NC(C(=O)NC(C(=O)O)c4cc(O)cc(O)c4-c4cc3ccc4O)C(OC3CC(C)(NCc4ccc(-c5ccccc5)cc4)C(O)C(C)O3)c3ccc(c(Cl)c3)Oc3cc2cc(c3OC2OC(CO)C(O)C(O)C2OC2CC(C)(NCc3ccc(-c4ccccc4)cc3)C(O)C(C)O2)Oc2ccc(cc2Cl)C1O (stereo not drawn) [Compound 248]
2

Next: CNC(CC(C)C)C(=O)NC1C(=O)NC(CC(N)=O)C(=O)NC2C(=O)NC3C(=O)NC(C(=O)NC(C(=O)O)c4cc(O)cc(O)c4-c4cc3ccc4O)C(OC3CC(C)(N)C(O)C(C)O3)c3ccc(c(Cl)c3)Oc3cc2cc(c3OC2OC(CO)C(O)C(O)C2OC2CC(C)(NCc3ccc(Cc4ccccc4)c(OC)c3)C(O)C(C)O2)Oc2ccc(cc2Cl)C1O (stereo not drawn) [Compound 104]
1.2

Next: CNC(CC(C)C)C(=O)NC1C(=O)NC(CC(N)=O)C(=O)NC2C(=O)NC3C(=O)NC(C(=O)NC(C(=O)O)c4cc(O)cc(O)c4-c4cc3ccc4O)C(OC3CC(C)(N)C(O)C(C)O3)c3ccc(c(Cl)c3)Oc3cc2cc(c3OC2OC(CO)C(O)C(O)C2OC2CC(C)(NCc3ccc(OC(F)(F)F)cc3)C(O)C(C)O2)Oc2ccc(cc2Cl)C1O (stereo not drawn) [Compound 6]
1.2

Next: CNC(CC(C)C)C(=O)NC1C(=O)NC(CC(N)=O)C(=O)NC2C(=O)NC3C(=O)NC(C(=O)NC(C(=O)O)c4cc(O)cc(O)c4-c4cc3ccc4O)C(OC3CC(C)(N)C(O)C(C)O3)c3ccc(c(Cl)c3)Oc3cc2cc(c3OC2OC(CO)C(O)C(O)C2OC2CC(C)(NCc3ccc(Oc4ccccc4Cl)c([N+](=O)[O-])c3)C(O)C(C)O2)Oc2ccc(cc2Cl)C1O (stereo not drawn) [Compound 88]
1.7

---

Tested on: Staphylococcus aureus S13E
Type: cell-based
Description: The MIC's were determined using a standard broth micro-dilution assay.
For each record, write down the corresponding MIC.

// lookup MIC for CNC(CC(C)C)C(=O)NC1C(=O)NC(CC(N)=O)C(=O)NC2C(=O)NC3C(=O)NC(C(=O)NC(C(=O)O)c4cc(O)cc(O)c4-c4cc3ccc4O)C(OC3CC(C)(N)C(O)C(C)O3)c3ccc(c(Cl)c3)Oc3cc2cc(c3OC2OC(CO)C(O)C(O)C2OC2CC(C)(NCc3ccc(Oc4ccccc4)cc3)C(O)C(C)O2)Oc2ccc(cc2Cl)C1O (stereo not drawn) [Compound 4, p-phenoxybenzyl·A82846B]
≤ 0.06 µg/mL

Next: CNC(CC(C)C)C(=O)NC1C(=O)NC(CC(N)=O)C(=O)NC2C(=O)NC3C(=O)NC(C(=O)NC(C(=O)O)c4cc(O)cc(O)c4-c4cc3ccc4O)C(OC3CC(C)(N)C(O)C(C)O3)c3ccc(c(Cl)c3)Oc3cc2cc(c3OC2OC(CO)C(O)C(O)C2OC2CC(C)(NCCc3ccc(OCc4ccccc4)cc3)C(O)C(C)O2)Oc2ccc(cc2Cl)C1O (stereo not drawn) [Compound 68]
≤ 0.06 µg/mL

Next: CNC(CC(C)C)C(=O)NC1C(=O)NC(CC(N)=O)C(=O)NC2C(=O)NC3C(=O)NC(C(=O)NC(C(=O)O)c4cc(O)cc(O)c4-c4cc3ccc4O)C(OC3CC(C)(N)C(O)C(C)O3)c3ccc(c(Cl)c3)Oc3cc2cc(c3OC2OC(CO)C(O)C(O)C2OC2CC(C)(NCc3ccc4c(c3)OCCO4)C(O)C(C)O2)Oc2ccc(cc2Cl)C1O (stereo not drawn) [Compound 56]
0.125 µg/mL

---

Tested on: Staphylococcus aureus SA1199B
Assay type: cell-based
Description: The MIC's were determined using a standard broth micro-dilution assay.
READOUT LABEL: MIC

// lookup MIC for CNC(CC(C)C)C(=O)NC1C(=O)NC(CC(N)=O)C(=O)NC2C(=O)NC3C(=O)NC(C(=O)NC(C(=O)O)c4cc(O)cc(O)c4-c4cc3ccc4O)C(OC3CC(C)(N)C(O)C(C)O3)c3ccc(c(Cl)c3)Oc3cc2cc(c3OC2OC(CO)C(O)C(O)C2OC2CC(C)(NCc3ccc(-c4ccc([N+](=O)[O-])cc4)c([N+](=O)[O-])c3)C(O)C(C)O2)Oc2ccc(cc2Cl)C1O (stereo not drawn)
≤ 0.06 µg/mL

Next: CNC(CC(C)C)C(=O)NC1C(=O)NC(CC(N)=O)C(=O)NC2C(=O)NC3C(=O)NC(C(=O)NC(C(=O)O)c4cc(O)cc(O)c4-c4cc3ccc4O)C(OC3CC(C)(N)C(O)C(C)O3)c3ccc(c(Cl)c3)Oc3cc2cc(c3OC2OC(CO)C(O)C(O)C2OC2CC(C)(NCc3cccc4ccccc34)C(O)C(C)O2)Oc2ccc(cc2Cl)C1O (stereo not drawn)
≤ 0.06 µg/mL

Next: CNC(CC(C)C)C(=O)NC1C(=O)NC(CC(N)=O)C(=O)NC2C(=O)NC3C(=O)NC(C(=O)NC(C(=O)O)c4cc(O)cc(O)c4-c4cc3ccc4O)C(OC3CC(C)(N)C(O)C(C)O3)c3ccc(c(Cl)c3)Oc3cc2cc(c3OC2OC(CO)C(O)C(O)C2OC2CC(C)(NCc3ccc4cc(OC)ccc4c3)C(O)C(C)O2)Oc2ccc(cc2Cl)C1O (stereo not drawn)
2 µg/mL

---

Tested on: vancomycin-resistant enterococci
METHOD: broth micro-dilution, mean geometric MIC
Format: cell-based, Enterococcus faecium and Enterococcus faecalis
TEST CONTEXT: enterococci, 24-hour incubation
Param label: returns class 1 when mean geometric MIC, Vancomycin Resistant Strains < 7 µg/mL, returns class 0 otherwise, including exact equality.

Bench note: check whether CNC(CC(C)C)C(=O)NC1C(=O)NC(CC(N)=O)C(=O)NC2C(=O)NC3C(=O)NC(C(=O)NC(C(=O)O)c4cc(O)cc(O)c4-c4cc3ccc4O)C(OC3CC(C)(N)C(O)C(C)O3)c3ccc(c(Cl)c3)Oc3cc2cc(c3OC2OC(CO)C(O)C(O)C2OC2CC(C)(NCc3ccc([S+]([O-])c4ccccc4)cc3)C(O)C(C)O2)Oc2ccc(cc2Cl)C1O (stereo not drawn) [Compound 159] shows mean geometric MIC, Vancomycin Resistant Strains below 7 µg/mL
class 0

Next: CNC(CC(C)C)C(=O)NC1C(=O)NC(CC(N)=O)C(=O)NC2C(=O)NC3C(=O)NC(C(=O)NC(C(=O)O)c4cc(O)cc(O)c4-c4cc3ccc4O)C(OC3CC(C)(NCc4ccc(-c5ccc(Cl)cc5)cc4)C(O)C(C)O3)c3ccc(c(Cl)c3)Oc3cc2cc(c3OC2OC(CO)C(O)C(O)C2OC2CC(C)(NCc3ccc(-c4ccc(Cl)cc4)cc3)C(O)C(C)O2)Oc2ccc(cc2Cl)C1O.O=C(O)C(F)(F)F (stereo not drawn) [Compound 254]
class 1

Next: CNC(CC(C)C)C(=O)NC1C(=O)NC(CC(N)=O)C(=O)NC2C(=O)NC3C(=O)NC(C(=O)NC(C(=O)O)c4cc(O)cc(O)c4-c4cc3ccc4O)C(OC3CC(C)(N)C(O)C(C)O3)c3ccc(c(Cl)c3)Oc3cc2cc(c3OC2OC(CO)C(O)C(O)C2OC2CC(C)(NCC3CCC(c4ccccc4)C3)C(O)C(C)O2)Oc2ccc(cc2Cl)C1O (stereo not drawn) [Compound 140]
class 1

Next: CNC(CC(C)C)C(=O)NC1C(=O)NC(CC(N)=O)C(=O)NC2C(=O)NC3C(=O)NC(C(=O)NC(C(=O)O)c4cc(O)cc(O)c4-c4cc3ccc4O)C(OC3CC(C)(N)C(O)C(C)O3)c3ccc(c(Cl)c3)Oc3cc2cc(c3OC2OC(CO)C(O)C(O)C2OC2CC(C)(NCc3c4ccccc4cc4ccccc34)C(O)C(C)O2)Oc2ccc(cc2Cl)C1O (stereo not drawn) [Compound 13]
class 0

Next: CNC(CC(C)C)C(=O)NC1C(=O)NC(CC(N)=O)C(=O)NC2C(=O)NC3C(=O)NC(C(=O)NC(C(=O)O)c4cc(O)cc(O)c4-c4cc3ccc4O)C(OC3CC(C)(N)C(O)C(C)O3)c3ccc(c(Cl)c3)Oc3cc2cc(c3OC2OC(CO)C(O)C(O)C2OC2CC(C)(NCc3ccc(-c4cccc(C)c4)cc3)C(O)C(C)O2)Oc2ccc(cc2Cl)C1O (stereo not drawn) [Compound 224]
class 1

Next: CNC(CC(C)C)C(=O)NC1C(=O)NC(CC(N)=O)C(=O)NC2C(=O)NC3C(=O)NC(C(=O)NC(C(=O)O)c4cc(O)cc(O)c4-c4cc3ccc4O)C(OC3CC(C)(N)C(O)C(C)O3)c3ccc(c(Cl)c3)Oc3cc2cc(c3OC2OC(CO)C(O)C(O)C2OC2CC(C)(NCc3cccc(OC4CCCCC4)c3)C(O)C(C)O2)Oc2ccc(cc2Cl)C1O (stereo not drawn) [Compound 153]
class 1
